Experimental Details: antimalarial activity against Dd2 strain (AID 2302);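 further: 0% = DMSO untreated growth and 100% = chloroquine plus artemisinin killed control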
Experimental Parameters: P. falciparum Dd2 in RBCs, LDH growth readout, 72 h; at 2 µM; hits give high values
What growth inhibition was measured for each of the following?
Report the figure in % without appending any unit label.

Ask: Sample CC(C)(C)c1ccc(C(=O)Nc2cccc(Nc3c(C(=O)NCc4cccc(C(F)(F)F)c4)cnc4c(O)cccc34)c2)cc1 — what was its growth inhibition?
Result: 79

Ask: Sample CN(C)C=Nc1ccc(OCCCCCCOc2ccc(N=CN(C)C)cc2)cc1 — what was its growth inhibition?
Result: 94

Ask: Sample CC(C)CCN(Cc1cncn1Cc1cccc(C(F)(F)F)c1)C(=O)c1ccccc1C#N — what was its growth inhibition?
Result: 96

Ask: Sample NCCCCc1c(-c2ccc(Cl)c(Cl)c2)[nH]c2ccc(Cl)cc12 — what was its growth inhibition?
Result: 20

Ask: Sample CCN(CC)c1ccccc1CNC(=O)c1cc(Cl)c(N)cc1OC — what was its growth inhibition?
Result: 94

Ask: Sample CCN(CCCN1CCCCC1)c1cc(C)nc(Nc2ccc(C)cc2Cl)n1 — what was its growth inhibition?
Result: 25

Ask: Sample CC(C)NCc1cccc(-c2ccc(NC(=O)c3ccc(C#N)cc3)cc2)c1 — what was its growth inhibition?
Result: 8

Ask: Sample CCCCCCCN1CC[C@@H](CCCc2ccnc3ccc(OC)cc23)[C@@H](CCN)C1 — what was its growth inhibition?
Result: 11

Ask: Sample Cc1cc(-c2nc3ccc(C(=O)NCc4ccccc4)cc3n2C2CCN(C(=O)c3ccc(-c4ccccc4)cc3)CC2)ccn1 — what was its growth inhibition?
Result: 97

Ask: Sample O=C(CSc1nc(-c2ccccc2Cl)ns1)Nc1ccc2c(c1)OCO2 — what was its growth inhibition?
Result: 77

Ask: Sample CCN1CCN(Cc2c(O)ccc3c(=O)c(Oc4cc(C)cc(C)c4)c(C(F)(F)F)oc23)CC1 — what was its growth inhibition?
Result: 90

Ask: Sample Cc1ccc2nc(C)n(C3CCN(C(=O)Cc4ccccc4C)CC3)c2c1 — what was its growth inhibition?
Result: 100

Ask: Sample CC(C)C[C@H]1C(=O)N[C@H](C2Cc3ccccc3C2)C(=O)N1[C@@H](C(=O)Nc1ccccc1OCc1ccccc1)c1ccc(F)cc1F — what was its growth inhibition?
Result: 67

Ask: Sample COc1ccccc1N(C)CCNc1cc(C)nc(Nc2ccccc2)n1 — what was its growth inhibition?
Result: 13

Ask: Sample CC1CN=C(c2ccc(NC(=O)c3ccc(C(=O)Nc4ccc(C5=NCC(C)N5)cc4)cc3)cc2)N1 (centres undefined) — what was its growth inhibition?
Result: 100

Ask: Sample CCCNC(=O)c1cncc(-c2ccc(CNCCCc3ccccc3)cc2)c1 — what was its growth inhibition?
Result: 29

Ask: Sample CC1(C)N=C(N)N=C(N)N1OCCCCOc1ccc(Cl)cc1C1CCCCC1 — what was its growth inhibition?
Result: 97

Ask: Sample Cn1cc(C2CCN(CCCCNC(=O)c3ccc(C(=O)Nc4ccc(C#N)cc4)cc3)CC2)c2ccccc21 — what was its growth inhibition?
Result: 58

Ask: Sample Cc1[nH]c(C)c(-c2ccc(Nc3ccc(C(F)(F)F)cn3)cc2)c(=O)c1Br — what was its growth inhibition?
Result: 98

---

Experimental Details: antimalarial activity against Dd2 strain (AID 2302);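 further: 0% = DMSO untreated growth and 100% = chloroquine plus artemisinin killed control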
Experimental Parameters: P. falciparum Dd2 in RBCs, LDH growth readout, 72 h; at 2 µM; hits give high values
Grouping key: growth inhibition. Bins: lower band: < 40%; central band: ≥ 40% and < 90%; upper band: ≥ 90%

Ask: Textbook exercise: identify the category of the compound given here, CCCN(CCC)CCCOc1ccc(C(=O)c2c(-c3ccc(OCCCN(CCC)CCC)cc3)oc3ccc(Cl)cc23)cc1 , according to its measured value.
Result: upper band

Ask: Textbook exercise: identify the category of the compound given here, CC1(C)N=C(N)N=C(N)N1OCc1cccc(C#N)c1 , according to its measured value.
Result: lower band

Ask: Textbook exercise: identify the category of the compound given here, CC(CCc1ccccc1)NCC(O)c1cccc(C(F)(F)F)c1 (configuration not stated) , according to its measured value.
Result: upper band

Ask: Textbook exercise: identify the category of the compound given here, CCCCN1Cc2c(n(CC(=O)Nc3ccccc3)c3cc(-c4ccccc4)nn3c2=O)C1=O , according to its measured value.
Result: central band

Ask: Textbook exercise: identify the category of the compound given here, CCNC(=O)N1CCN(c2nc(-c3ccccc3)nc(COC)c2Cc2ccc(C)cc2)CC1 , according to its measured value.
Result: upper band

Ask: Textbook exercise: identify the category of the compound given here, Nc1nc2ncn(COC(COCc3ccccc3)COCc3ccccc3)c2c(=O)[nH]1 (tested in a mixture with another compound) , according to its measured value.
Result: central band

Ask: Textbook exercise: identify the category of the compound given here, COc1cc(NC(=O)N2CCc3cc(OC)c(OCCN4CCCCC4)cc32)cc(C(F)(F)F)c1 , according to its measured value.
Result: lower band

Ask: Textbook exercise: identify the category of the compound given here, Cc1cc([N+](=O)[O-])ccc1NC(=O)Nc1cccc(C(F)(F)F)c1 , according to its measured value.
Result: upper band

Ask: Textbook exercise: identify the category of the compound given here, CC(C)NCc1cccc(-c2ccc(-c3nc4ccc(C(F)(F)F)cc4[nH]3)cc2)c1 , according to its measured value.
Result: upper band

Ask: Textbook exercise: identify the category of the compound given here, CN(CCC(O)c1ccc(Cl)c(Cl)c1)C[C@H]1C[C@@H]1C(=O)c1ccccc1 (some centres not stated) , according to its measured value.
Result: upper band

Ask: Textbook exercise: identify the category of the compound given here, COc1cc2ncnc(Nc3ccc(OCc4ccccc4)c(C(F)(F)F)c3)c2cc1OC , according to its measured value.
Result: central band

Ask: Textbook exercise: identify the category of the compound given here, O=S(=O)(NC1CCN(c2ccnc3ccccc23)C1)c1ccc(OC(F)(F)F)cc1 (configuration not stated) , according to its measured value.
Result: lower band

Ask: Textbook exercise: identify the category of the compound given here, N#Cc1ccc(CN2CCC(Oc3ccc(NC(=O)c4cccs4)cc3)CC2)cc1 , according to its measured value.
Result: central band

Ask: Textbook exercise: identify the category of the compound given here, COc1ccc(NC(=O)[C@H](Cc2ccccc2)Nc2cc(C)nc(NCCN3CCCC3)n2)cc1 , according to its measured value.
Result: lower band

Ask: Textbook exercise: identify the category of the compound given here, Fc1cc(Cl)ccc1Nc1ccnc2cc(-c3ccc(CN4CCSCC4)o3)ccc12 , according to its measured value.
Result: upper band

Ask: Textbook exercise: identify the category of the compound given here, COc1cccc2c1CCN(CCN1CCC(NC(=O)c3ccc(-c4cccc(Cl)c4Cl)cc3)CC1)C2 , according to its measured value.
Result: lower band

Ask: Textbook exercise: identify the category of the compound given here, CC(C)c1cc2c(ccc3nc(N)nc(N)c32)o1 , according to its measured value.
Result: lower band

Ask: Textbook exercise: identify the category of the compound given here, CN(C)CCCn1c(N)c(-c2nc3ccccc3[nH]2)c2nc(C#N)c(C#N)nc21 , according to its measured value.
Result: upper band

Ask: Textbook exercise: identify the category of the compound given here, O=C(/C=C/c1ccc(Cl)c(Cl)c1)NCCCCN1CCCN(C(=O)Nc2cc(Cl)cc(Cl)c2)CC1 , according to its measured value.
Result: lower band

Ask: Textbook exercise: identify the category of the compound given here, O=C(Nc1cccc(-c2csc(NC(=O)c3ccc4ccccc4c3)n2)c1)c1ccc2ccccc2c1 , according to its measured value.
Result: lower band

Ask: Textbook exercise: identify the category of the compound given here, CN(C)C(CNC(=O)c1cc(-c2ccncc2)c(-c2cc3ccccc3[nH]2)o1)c1ccccc1 (configuration not stated) , according to its measured value.
Result: central band

Ask: Textbook exercise: identify the category of the compound given here, Clc1ccc(OC2CCC(Cn3ccnc3)(c3ccc(Cl)cc3Cl)CC2)c(Cl)c1 (configuration not stated) , according to its measured value.
Result: central band

Ask: Textbook exercise: identify the category of the compound given here, COc1ccc(Nc2ncc3c(-c4cccc(NC(=O)Cc5cccnc5)c4)c[nH]c3n2)cc1OC , according to its measured value.
Result: central band

Ask: Textbook exercise: identify the category of the compound given here, COCCN1CCC(CNCC(C)(C)c2nc(-c3ccc(Cl)c(O)c3)c(-c3ccncc3)[nH]2)CC1 , according to its measured value.
Result: lower band

Ask: Textbook exercise: identify the category of the compound given here, CN(C)CC(=O)Nc1cccc(Nc2nccc(NCC(O)c3ccccc3)n2)c1 (configuration not stated) , according to its measured value.
Result: lower band

Ask: Textbook exercise: identify the category of the compound given here, Cn1cnc(-c2ccc3c(c2)CCN(CCC2CCC(NC(=O)/C=C/c4ccc(F)cc4)CC2)CC3)c1 (configuration not stated) , according to its measured value.
Result: lower band

Ask: Textbook exercise: identify the category of the compound given here, NC1CCN(c2cnn(Cc3cccc(NC(=O)Nc4ccc(-c5ccccc5)cc4)c3)c(=O)c2Cl)CC1 , according to its measured value.
Result: lower band

Ask: Textbook exercise: identify the category of the compound given here, Cc1c(S(=O)(=O)Nc2ccc3ccn(CCN(C)C)c3c2)sc2ccc(Cl)cc12 , according to its measured value.
Result: upper band

Ask: Textbook exercise: identify the category of the compound given here, CN(C)c1ccc(-c2csc(C(=O)NC3CCCCN(Cc4ccc(C(C)(C)C)cc4)C3)c2)cc1 (configuration not stated) , according to its measured value.
Result: central band

Ask: Textbook exercise: identify the category of the compound given here, C=Cc1ccccc1C1(O)CCN(CCCCNC(=O)c2ccc(-c3ccc(C#N)cc3)cc2)CC1 , according to its measured value.
Result: central band

Ask: Textbook exercise: identify the category of the compound given here, CCn1c(Sc2ccc(C#N)c([N+](=O)[O-])c2)nnc1-c1ccc(OC)cc1 , according to its measured value.
Result: upper band

Ask: Textbook exercise: identify the category of the compound given here, COc1ccccc1CCNc1nccc(N[C@@H](Cc2ccccc2)C(=O)NCc2cccs2)n1 , according to its measured value.
Result: central band

Ask: Textbook exercise: identify the category of the compound given here, COc1cccc(C(=O)N2CCOC(CCN3CCC(c4ccccc4)CC3)(c3ccc(Cl)c(Cl)c3)C2)c1 (configuration not stated) , according to its measured value.
Result: central band

Ask: Textbook exercise: identify the category of the compound given here, Cc1cc2nc(-c3ccc(OCC(=O)NCc4ccc(C(C)(C)C)cc4)cc3)[nH]c2cc1C , according to its measured value.
Result: lower band

Ask: Textbook exercise: identify the category of the compound given here, CC(C)(C)c1ccc(CN2CCC(CNC(=O)c3cc(-c4ccccc4Cl)cs3)C2)cc1 (configuration not stated) , according to its measured value.
Result: central band
